- System: CASKI
- Experiment Notes: Primary qHTS to identify gynecologic anti-cancer compounds using libraries of approved drugs and bioactive compounds (AID 1345084); further: nearly all actives have a fitted effect of over 55% in size; further: potency means the concentration at half of the fitted maximal effect
- Particulars: Gynecologic cancer cell panel viability, ATPlite luminescence, 48 h; series mostly up to 57.5 µM
Inconclusive results are not listed. The source made the active and inactive calls. The call rests on the fitted dose curve; in most records, active means well fitted cell-killing curve with a large enough effect; inconclusive means small, poorly fitted or top-dose-only effect, or effect the other way; inactive means flat fitted curve, though single readings scatter.
Test Readout: Potency

// below: answered molecules
Problem: Give me measured Potency, please, for this molecule: CCCCc1oc2ccccc2c1C(=O)c1cc(I)c(OCCN(CC)CC)c(I)c1
Result: inactive

Problem: Note down Potency recorded for COc1ccccc1OCC(O)CN1CCN(CC(=O)Nc2c(C)cccc2C)CC1 (stereo not given)
Result: inactive

Problem: State its Potency for this molecule: Cn1c(=O)c2[nH]cnc2n(C)c1=O
Result: inactive

Problem: Supply recorded Potency for CC#C[C@]1(O)CC[C@H]2[C@@H]3CCC4=CC(=O)CCC4=C3[C@@H](c3ccc(N(C)C)cc3)C[C@@]21C here.
Result: inactive

Problem: Note Potency for the molecule shown: NCCCCCC(=O)O
Result: inactive

Problem: Consider the molecule O=C(c1ccc(OCCN2CCCCC2)cc1)c1c(-c2ccc(O)cc2)sc2cc(O)ccc12 and give its recorded Potency.
Result: inactive

Problem: Query Potency for NC12CC3CC(CC(C3)C1)C2
Result: inactive

Problem: Please report Potency for the following molecule: CS(=O)(=O)Nc1ccc([N+](=O)[O-])cc1Oc1ccccc1
Result: inactive

Problem: Quickly give me recorded Potency for Clc1ccc(C(c2ccccc2Cl)C(Cl)Cl)cc1 (stereo not given)
Result: inactive

Problem: Give the measured Potency for NC(=O)NO
Result: inactive

Further cases:
Problem: Give a short answer stating reported Potency for O=C1Cc2cc(CCN3CCN(c4nsc5ccccc45)CC3)c(Cl)cc2N1 .
Result: inactive

Problem: Supply recorded Potency for COc1ccccc1N1CCN(CC(O)COc2cccc3ccccc23)CC1 (stereo not given) here.
Result: 14.1 µM (active)

----------
- Experiment Notes: qHTS of pediatric cancer cell lines to identify multiple opportunities for drug repurposing: Confirmatory screen for LAN-5 cells (AID 1347113); further: nearly all actives have a fitted effect of over 65% in size; further: potency means the concentration at half of the fitted maximal effect
- Particulars: LAN-5 neuroblastoma cell viability; series mostly up to 45.9 µM
Inconclusive results are not listed. Activity calls are given as the source filed them. The call rests on the fitted dose curve; in most records, active means well fitted cell-killing curve with a large enough effect; inconclusive means small, poorly fitted or top-dose-only effect, or effect the other way; inactive means no such curve, though single readings can be large or run the other way.
Test Readout: Potency

Problem: Write down Potency measured for item CCCCc1oc2ccccc2c1C(=O)c1cc(I)c(OCCN(CC)CC)c(I)c1
Result: 35.5 µM (active)

Problem: Give the measured Potency for CC(CCc1ccc(O)cc1)NCCc1ccc(O)c(O)c1 (stereo unspecified)
Result: inactive

Problem: Supply measured Potency of CS(=O)(=O)Nc1ccc([N+](=O)[O-])cc1Oc1ccccc1 in your reply.
Result: inactive

Problem: Determine its reported Potency: O=C1c2c(O)ccc(O)c2C(=O)c2c(NCCNCCO)ccc(NCCNCCO)c21
Result: 0.165 µM (active)

Problem: Return Potency for the following molecule: CC(C)C(=O)Nc1ccc([N+](=O)[O-])c(C(F)(F)F)c1
Result: inactive

# ---- query molecule ----
Problem: Given the molecule CN(Cc1cnc2nc(N)nc(N)c2n1)c1ccc(C(=O)N[C@@H](CCC(=O)O)C(=O)O)cc1 , write its reported Potency.
Result: inactive

----------
- System: CP247
- Experiment Notes: qHTS profiling for inhibitors of Plasmodium falciparum proliferation (AID 504749); further: nearly all actives have a fitted effect of over 60% in size
- Particulars: P. falciparum in erythrocytes, SYBR Green DNA, 72 h; series mostly up to 28.7 µM
Results filed as inconclusive are left out. Calls of active or inactive are those of the source. The call rests on the fitted dose curve; in most records, active means well fitted inhibition curve with a large enough effect; inconclusive means small, poorly fitted or top-dose-only effect; inactive means flat fitted curve, though single readings scatter.
Thanks in advance; please answer with one of these: true (active), false (inactive)

Problem: Record request — test call for Cc1cc(C(C)(C)C)c(O)c(C)c1CC1=NCCN1
Result: false

Problem: Per the records of this test, what outcome belongs to CN(C)CCOC(c1ccccc1)c1ccccc1 ?
Result: false

Problem: Assay outcome for CCOC(=O)Nc1ccc(NCc2ccc(F)cc2)nc1N : what was it?
Result: true

Problem: I would be grateful if you could indicate the recorded call for Cn1c(=O)c2c(ncn2C)n(C)c1=O .
Result: false

Problem: Entry O=C(c1ccc(OCCN2CCCCC2)cc1)c1c(-c2ccc(O)cc2)sc2cc(O)ccc12 : call = ?
Result: true

Problem: Could you check what this test reported for Cc1ccc(C(=O)Nc2ccc(S(=O)(=O)O)c3cc(S(=O)(=O)O)cc(S(=O)(=O)O)c23)cc1NC(=O)c1cccc(NC(=O)Nc2cccc(C(=O)Nc3cc(C(=O)Nc4ccc(S(=O)(=O)O)c5cc(S(=O)(=O)O)cc(S(=O)(=O)O)c45)ccc3C)c2)c1 ?
Result: false

Problem: What call does the record list for CC(C)NCC(O)c1ccc(O)c(O)c1 (stereo unspecified) ?
Result: false

Problem: Just curious, what result did COc1ccccc1N1CCN(CC(O)COc2cccc3ccccc23)CC1 (stereo unspecified) get here?
Result: false

More entries:
Problem: Record request — test call for Clc1ccccc1C(c1ccccc1)(c1ccccc1)n1ccnc1
Result: true

Problem: Status in this test for O=c1[nH]cc(F)c(=O)[nH]1 ?
Result: true

Problem: // return assay outcome for Cn1cnc2c1c(=O)[nH]c(=O)n2C
Result: false

----------
- Experiment Notes: Quantitative High-Throughput drug screen in 47 multiple myeloma cell lines against the NCATS MIPE library collection: MMM1_PLB cell viability assay (AID 1918976); further: nearly all actives have a fitted effect of over 35% in size
- Particulars: MMM1 myeloma cells viability, CellTiter-Glo, 48 h; series mostly up to 45.8 µM
Inconclusive results are not listed. Active and inactive are the calls of the source. Calls come from the whole dose curve; as a rule, active = well fitted cell-killing curve with a large enough effect; inconclusive = small, poorly fitted or top-dose-only effect, or effect the other way; inactive = no such curve, though single readings can be large or run the other way.
# valid calls are active, inactive; nothing else

Past entries and their recorded results:
Problem: Entry C[C@](N)(Cc1ccc(O)c(O)c1)C(=O)O : call = ?
Result: active

Problem: I'd appreciate the recorded outcome for CS(=O)(=O)Nc1ccc([N+](=O)[O-])cc1Oc1ccccc1 from this test.
Result: active

Problem: Hello, I am checking results. What call was entered for CN1C2CCC1CC(OC(=O)C(CO)c1ccccc1)C2 (stereo not given) ?
Result: inactive

New cases:
Problem: Check the results log: what was the call for CC[C@@]1(O)C(=O)OCc2c1cc1n(c2=O)Cc2cc3c(CN(C)C)c(O)ccc3nc2-1 ?
Result: active

Problem: # lookup: test call for Clc1ccccc1C(c1ccccc1)(c1ccccc1)n1ccnc1
Result: active

----------
- Experiment Notes: qHTS of pediatric cancer cell lines to identify multiple opportunities for drug repurposing: Confirmatory screen for BT-12 cells (AID 1347112);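 further: viability read after 48 h of compound exposure; nearly all actives have a fitted effect of over 55% in size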
- Particulars: BT-12 rhabdoid tumor cells, viability; series mostly up to 45.9 µM
- Experimental: Drug repurposing or repositioning has been offered as a strategy for drug development in oncology programs. […] [1] Shen, M et al. Quantitative high-throughput phenotypic screening of pediatric cancer cell lines identifies multiple opportunities for drug repurposing. […] Cells were assayed in growth media at a density of 500-1,000 cells/well. […] After a 15 min incubation at room temperature, samples were analyzed for luminescence intensity using a ViewLux High-throughput CCD imager equipped with clear filters.
Inconclusive results are not listed. Activity calls are given as the source filed them. Calls follow the shape of the dose curve; as a rule, active = well fitted cell-killing curve with a large enough effect; inconclusive = small, poorly fitted or top-dose-only effect; inactive = flat fitted curve, though single readings scatter.
Outcome (select one): active, inactive

Below, 5 compounds whose answers are already recorded.
Problem: GET /call?item= COc1cc2c(c(OC)c1OC)-c1ccc(OC)c(=O)cc1[C@@H](NC(C)=O)CC2 returns the recorded outcome of this test.
Result: active

Problem: Dear all, I need the recorded test outcome for CC[C@@]1(O)C(=O)OCc2c1cc1n(c2=O)Cc2cc3c(CN(C)C)c(O)ccc3nc2-1 , thank you.
Result: active

Problem: What is the recorded call for this compound in the test? CC(C)NCC(O)c1ccc(O)c(O)c1 (stereo not drawn)
Result: active

Problem: I would be grateful if you could indicate the recorded call for O=C1c2c(O)ccc(O)c2C(=O)c2c(NCCNCCO)ccc(NCCNCCO)c21 .
Result: active

Problem: Please let me know the test result on file for CS(=O)(=O)CCNCc1ccc(-c2ccc3ncnc(Nc4ccc(OCc5cccc(F)c5)c(Cl)c4)c3c2)o1 .
Result: active

Others:
Problem: // param item: COC(=O)Nc1nc2ccc(C(=O)c3cccs3)cc2[nH]1 ; yields the recorded call
Result: active

Problem: Which outcome did this test record for the compound CCCCc1oc2ccccc2c1C(=O)c1cc(I)c(OCCN(CC)CC)c(I)c1 ?
Result: active

Problem: Given Clc1ccc(C(c2ccccc2Cl)C(Cl)Cl)cc1 (stereo not drawn) , state the outcome it received in this test.
Result: inactive

----------
- Assay System: Glucocorticoid receptor (Homo sapiens)
- Experiment Notes: qHTS assay for small molecule agonists of glucocorticoid receptor signaling (AID 588532);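 further: 100% = dexamethasone at 0.1 µM and 0% = DMSO only wells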
- Particulars: HeLa MMTV-bla, beta-lactamase ratio, agonist, 18 h; active compounds read high; percent of dexamethasone control, DMSO zero
Inconclusive results are not listed.
We begin with a simple list: items and their reported activation.
Give the number; % is assumed, so skip it.

Problem: Indicate its recorded activation; the compound in question is N[C@@H](Cc1c[nH]c2ccc(O)cc12)C(=O)O
Result: -7.97

Problem: Given the compound Clc1ccc(C(c2ccccc2Cl)C(Cl)Cl)cc1 (stereo not drawn) , write its reported activation.
Result: -3.98

Problem: Respond only with activation recorded for Cn1c(=O)c2c(ncn2C)n(C)c1=O
Result: -1.83

Then there is this compound:
Problem: // fetch activation given entry CCOC(=O)C(C)(C)Oc1ccc(Cl)cc1
Result: -5.3
